target_under_test: R12 domain of RyR3 (Homo sapiens, UniProt Q15413)
Construct: RyR1 854–1054, RyR2 865–1065, RyR3 853–1053; made in house; host or cells: E. coli BL21 (DE3)
Sequence (Q15413 853-1053): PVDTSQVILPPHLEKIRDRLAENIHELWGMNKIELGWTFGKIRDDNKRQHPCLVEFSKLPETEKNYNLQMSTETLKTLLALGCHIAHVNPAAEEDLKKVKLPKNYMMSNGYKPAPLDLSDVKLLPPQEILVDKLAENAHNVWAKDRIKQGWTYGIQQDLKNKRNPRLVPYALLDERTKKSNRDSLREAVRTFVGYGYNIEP
test_details: ITC, R12 domain of RyR3
Assay type: binding
condition_label: RyR3 R12 + 5 mM AMP-PCP
Exercise: for every item that follows, state its recorded pKd.
Give bare numbers, as −log10 of the molar value.

Worked cases, answers included:
molecule | value_measured
O=C1CN(/N=C/c2ncc(-c3ccc(Br)cc3)o2)C(=O)N1 | 7.32
O=C(C[C@@H](NCCCO)C(=O)O)Nc1ccc2ccccc2c1 | 5.47

API: the following record is the query input.
Input O=C1CN(/N=C/c2ccc(-c3ccc([N+](=O)[O-])cc3)o2)C(O)=N1 . Output pKd: 7.59
